B1: C10orf62 (parent)
chain: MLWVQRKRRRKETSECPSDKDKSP

- Variants of: B1
- TEST: protein stability index of a GFP-peptide fusion (GPS, HEK-293T) (PSI 1-6); higher = more stable;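 further: lentivirally expressed fusions sorted by FACS into six bins by GFP to DsRed ratio, PSI derived from sequencing read proportions per bin multiplied by bin number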
- STATED CONDITIONS: c terminus: a fixed tail appended
So I've got a bunch of variants here, and I need their protein stability index values.
When you answer, write just the number.

Please report the measured protein stability index for R9F
3.64

Please give the documented protein stability index of E12L
3.02

Return reported protein stability index. Input variant: T13C
2.42

For the variant K22M , give its reported protein stability index.
3.06

Using known records, supply protein stability index for K7W
2.49

Answer with the recorded protein stability index of R6V only.
2.95

State its protein stability index: R10N
3.78

For the variant S18C , report protein stability index.
2.77

Complete the entry with protein stability index for R9Q
3.2

Give the value of protein stability index reported for the following: V4W
2.57

For the variant D21I , give its measured protein stability index value.
2.32

Return value of protein stability index for input V4K , no commentary.
3.56

For the variant R9M , report protein stability index.
3.63

Quickly give me recorded protein stability index for D19W
1.65

Find the measured protein stability index of P24R and report it.
3.31

Give protein stability index for the following variant: S14A
3.82

State, in one line, measured protein stability index of D19M
3.44

Consider the variant P24L . State its measured protein stability index.
2.37

Please indicate protein stability index recorded for R8C
3.34

Return reported protein stability index. Input variant: R10F
2.33

Return value of protein stability index for input K22V , no commentary.
3.63

Give reported protein stability index value for R9N
3.18

Supply protein stability index value. Item: V4F
2.94

Specify reported protein stability index for the variant shown: C16H
3.11

Provide protein stability index value for the following variant: L2F
1.33

Dear colleague, please send me the reported protein stability index for Q5I when you can.
2.21

Identify protein stability index associated with the variant R10Y
2.78

Report protein stability index, nothing else, for this variant: P17N
3.23

Fill in protein stability index for record M1Y
3.4

Look up protein stability index of K20D and report it.
4.06

Name the recorded protein stability index of the variant listed here: R8T
2.95

For E12A , write its protein stability index.
3.13

Let me know recorded protein stability index for S23I , thanks.
2.4

Supply measured protein stability index of P17W in your reply.
2.86

Note down protein stability index recorded for K20T
3.35

Determine from records and report protein stability index for M1A
2.93

Report protein stability index for S18Y
2.43

Please give measured protein stability index of the following entry: K7G
3.23

Report protein stability index for S23V
3.58

Fill in protein stability index for record K7N
3.9

Fill in protein stability index for record E12S
3.45

For the variant E15W , report protein stability index.
2.15

Respond only with protein stability index recorded for E15A
3.71

Provide only the value of recorded protein stability index for R10E
3.86

For the variant P24W , give its reported protein stability index.
3.58

Consider the variant T13K and give its recorded protein stability index.
3.55
